Target: rat mGluR5 receptors (Rattus norvegicus)
Sequence (P31424 21-1203): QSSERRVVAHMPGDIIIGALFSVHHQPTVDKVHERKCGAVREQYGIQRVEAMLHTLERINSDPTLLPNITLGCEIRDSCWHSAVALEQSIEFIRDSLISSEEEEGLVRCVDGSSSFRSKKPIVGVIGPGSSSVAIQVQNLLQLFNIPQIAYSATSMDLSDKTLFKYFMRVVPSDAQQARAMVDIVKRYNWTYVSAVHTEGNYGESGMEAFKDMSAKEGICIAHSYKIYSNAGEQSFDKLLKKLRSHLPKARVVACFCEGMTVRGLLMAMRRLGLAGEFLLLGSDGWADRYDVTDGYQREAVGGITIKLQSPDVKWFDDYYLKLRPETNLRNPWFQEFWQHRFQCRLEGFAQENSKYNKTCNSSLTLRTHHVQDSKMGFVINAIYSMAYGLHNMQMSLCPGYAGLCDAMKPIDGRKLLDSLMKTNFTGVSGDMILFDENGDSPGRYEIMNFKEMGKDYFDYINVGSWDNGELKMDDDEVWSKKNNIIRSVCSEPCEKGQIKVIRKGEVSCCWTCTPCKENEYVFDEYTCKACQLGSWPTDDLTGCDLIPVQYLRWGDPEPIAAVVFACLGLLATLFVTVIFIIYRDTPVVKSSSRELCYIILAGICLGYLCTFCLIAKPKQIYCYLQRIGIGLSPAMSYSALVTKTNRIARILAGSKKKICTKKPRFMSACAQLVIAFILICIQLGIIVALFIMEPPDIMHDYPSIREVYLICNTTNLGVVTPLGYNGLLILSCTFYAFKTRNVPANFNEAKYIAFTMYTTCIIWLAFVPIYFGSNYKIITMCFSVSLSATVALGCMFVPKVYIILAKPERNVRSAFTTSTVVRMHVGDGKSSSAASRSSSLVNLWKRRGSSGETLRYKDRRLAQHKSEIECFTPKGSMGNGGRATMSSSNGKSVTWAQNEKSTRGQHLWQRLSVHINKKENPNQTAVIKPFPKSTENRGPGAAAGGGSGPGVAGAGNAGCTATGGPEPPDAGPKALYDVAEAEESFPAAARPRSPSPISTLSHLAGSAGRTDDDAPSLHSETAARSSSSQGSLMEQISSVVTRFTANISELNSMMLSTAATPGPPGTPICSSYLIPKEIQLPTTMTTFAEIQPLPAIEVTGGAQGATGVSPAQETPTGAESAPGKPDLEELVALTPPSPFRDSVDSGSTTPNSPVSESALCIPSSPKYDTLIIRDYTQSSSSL
Some molecules, each annotated with its measured Ki.

Look over these answered cases.
1. CN1CCN(c2c(S(=O)(=O)c3ccc(Cl)cc3)cnc3ccccc23)CC1; > 500 nM
2. O=S(=O)(c1ccc(F)c(Cl)c1)c1cnc2cc(Cl)ccc2c1N1CCOCC1; < 200 nM
3. Cc1ccc(S(=O)(=O)c2cnc3ccc(C)cc3c2Nc2ccc(Cl)cc2)cc1; > 500 nM
4. Cc1ccc(S(=O)(=O)c2cnc3ccc(C)cc3c2NCc2ccccc2)cc1; > 500 nM
5. O=S(=O)(c1ccccc1)c1cnc2ccc(F)cc2c1N1CCN(Cc2ccccc2)CC1; > 500 nM
6. Cc1ccc(S(=O)(=O)c2cnc3ccc(C)cc3c2NCc2ccc(F)cc2)cc1; > 500 nM
7. COc1ccc(N2CCN(c3c(S(=O)(=O)c4ccc(Cl)cc4)cnc4ccc(C)cc34)CC2)cc1; > 500 nM
8. Cc1ccc(S(=O)(=O)c2cnc3cc(Cl)ccc3c2N2CCOCC2)cc1Cl; < 200 nM

// query Look up Ki for this molecule: CC1CCN(c2c(S(=O)(=O)c3cc(Cl)cc(Cl)c3)cnc3c(F)cccc23)CC1
// result < 200 nM

// query Can you check O=S(=O)(c1ccccc1)c1cnc2ccccc2c1N1CCC2(CC1)OCCO2 next?
// result > 500 nM

// query Can you check CC1CCN(c2c(S(=O)(=O)c3ccc(Cl)cc3)cnc3ccc(Cl)cc23)CC1 next?
// result < 200 nM

// query Can you check CC1CCN(c2c(S(=O)(=O)c3cc(F)cc(F)c3)cnc3cc(Cl)ccc23)CC1 next?
// result < 200 nM

// query Can you check COc1ccc2ncc(S(=O)(=O)c3cc(Cl)cc(Cl)c3)c(N3CCOCC3)c2c1 next?
// result > 500 nM

// query Can you check COc1ccc2ncc(S(=O)(=O)c3cc(F)cc(F)c3)c(N3CCOCC3)c2c1 next?
// result > 500 nM

// query Can you check O=S(=O)(c1ccc(Cl)cc1)c1cnc2ccc(F)cc2c1N1CCOCC1 next?
// result > 500 nM

// query Can you check Cc1cc(C)cc(S(=O)(=O)c2cnc3ccc(F)cc3c2N2CCOCC2)c1 next?
// result > 500 nM

// query Can you check Cc1ccc2ncc(S(=O)(=O)c3cccc(C#N)c3)c(N3CCC(C)CC3)c2c1 next?
// result > 500 nM

Where these numbers come from: patent US20090270371A1
